- STATED CONDITIONS: in methanol, 298.15 K
MEASURED QUANTITY: solubility (mole fraction)
One number for each entry.

Measured solubility (mole fraction) of `NC(=O)CC[C@H](N)C(=O)O` : 0.000134

* * *

- STATED CONDITIONS: in n-propanol, 283.15 K
MEASURED QUANTITY: solubility (mole fraction)
One number for each entry.

Documented solubility (mole fraction) of `NC(=O)CC[C@H](N)C(=O)O` : 8.13e-05

* * *

- STATED CONDITIONS: in acetonitrile, 288.15 K
MEASURED QUANTITY: solubility (mole fraction)
One number for each entry.

Entry `NC(=O)CC[C@H](N)C(=O)O` , solubility (mole fraction) reported as 6.77e-05

Reference source for all entries: BigSolDB 2.1
